Biological target: Muscarinic acetylcholine receptor M2 (Homo sapiens, UniProt P08172)
Sequence (P08172 whole entry): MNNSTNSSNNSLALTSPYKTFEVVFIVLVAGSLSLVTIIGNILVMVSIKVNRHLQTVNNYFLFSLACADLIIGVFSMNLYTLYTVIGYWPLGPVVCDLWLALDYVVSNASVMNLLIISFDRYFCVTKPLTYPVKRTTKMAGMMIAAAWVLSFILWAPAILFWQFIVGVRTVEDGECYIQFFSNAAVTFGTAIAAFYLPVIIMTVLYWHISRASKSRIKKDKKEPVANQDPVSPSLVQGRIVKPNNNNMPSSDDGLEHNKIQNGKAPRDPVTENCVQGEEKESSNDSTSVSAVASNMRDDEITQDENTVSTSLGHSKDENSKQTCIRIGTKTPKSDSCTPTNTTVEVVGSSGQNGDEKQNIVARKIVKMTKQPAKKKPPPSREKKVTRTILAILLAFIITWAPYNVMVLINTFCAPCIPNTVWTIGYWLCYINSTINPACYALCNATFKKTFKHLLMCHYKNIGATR
Assay: Binding affinity towards human muscarinic M2 receptor in CHO-KI cells using [3H]- QNB as radioligand
experimental-endpoint: log10 of Ki (log10 of the value in nM)
A difference of one corresponds to tenfold Ki; all values are log10 with Ki in nM.

A selection of reference data follows.
| molecule | log10 of Ki |
| --- | --- |
| C[C@@H]1OC(=O)[C@H]2C[C@H]3CCCC[C@@H]3[C@@H](CCCN3CCCC(O)C3)[C@@H]12 (stereo not given in full) | 2.17 |
| C[C@@H]1OC(=O)[C@H]2C[C@H]3CCCC[C@@H]3[C@@H](CCCN3CCN(C(=O)OC(C)(C)C)CC3)[C@@H]12 | 2.69 |
| C[C@@H]1OC(=O)[C@H]2C[C@H]3CCCC[C@@H]3[C@@H](/C=C/[C@H]3CCC[C@H](C)N3C)[C@@H]12 [HIMBACINE] | 1.68 |

Lab note: each molecule below needs its log10 of Ki filled in.
1. C[C@@H]1OC(=O)[C@H]2C[C@H]3CCCC[C@@H]3[C@@H](CCCN3CCCC(C)(C)C3)[C@@H]12
2. C[C@@H]1OC(=O)[C@H]2C[C@H]3CCCC[C@@H]3[C@@H](CCCNC34CC5CC(CC(C5)C3)C4)[C@@H]12
3. C[C@@H]1OC(=O)[C@H]2C[C@H]3CCCC[C@@H]3[C@@H](CCCN3CCC(N4CCCCC4)CC3)[C@@H]12
4. C[C@@H]1OC(=O)[C@H]2C[C@H]3CCCC[C@@H]3[C@@H](CCCN3CCc4ccccc4C3)[C@@H]12
5. CC1CCCN(CCC[C@@H]2[C@H]3CCCC[C@@H]3C[C@@H]3C(=O)O[C@@H](C)[C@H]23)C1 (stereo not given in full)

1: 2.35; 2: 1.41; 3: 2.81; 4: 2.26; 5: 2.49

Lab note: each molecule below needs its log10 of Ki filled in.
1. C[C@@H]1OC(=O)[C@H]2C[C@H]3CCCC[C@@H]3[C@@H](CCCN3CCN(C)CC3)[C@@H]12
2. CCC1CCCCN1CCC[C@@H]1[C@H]2CCCC[C@@H]2C[C@@H]2C(=O)O[C@@H](C)[C@H]12 (stereo not given in full)
3. CC1CN(CCC[C@@H]2[C@H]3CCCC[C@@H]3C[C@@H]3C(=O)O[C@@H](C)[C@H]23)C(C)CN1 (stereo not given in full)

1: 2.77; 2: 2.32; 3: 2.76

Lab note: each molecule below needs its log10 of Ki filled in.
1. C[C@@H]1OC(=O)[C@H]2C[C@H]3CCCC[C@@H]3[C@@H](CCCN3CCCCC3)[C@@H]12
2. C[C@@H]1OC(=O)[C@H]2C[C@H]3CCCC[C@@H]3[C@@H](CCCN3CCSCC3)[C@@H]12
3. C[C@@H]1OC(=O)[C@H]2C[C@H]3CCCC[C@@H]3[C@@H](CCCN3CCCC4CCCCC43)[C@@H]12 (stereo not given in full)
4. CC1CCN(CCC[C@@H]2[C@H]3CCCC[C@@H]3C[C@@H]3C(=O)O[C@@H](C)[C@H]23)CC1
5. CC1CN(CCC[C@@H]2[C@H]3CCCC[C@@H]3C[C@@H]3C(=O)O[C@@H](C)[C@H]23)CC(C)O1 (stereo not given in full)

[2.55, 2.28, 1.11, 2.45, 2.58]

Lab note: each molecule below needs its log10 of Ki filled in.
1. C[C@@H]1OC(=O)[C@H]2C[C@H]3CCCC[C@@H]3[C@@H](CCCN3CCOCC3)[C@@H]12
2. CC1CCCCN1CCC[C@@H]1[C@H]2CCCC[C@@H]2C[C@@H]2C(=O)O[C@@H](C)[C@H]12 (stereo not given in full)
3. C[C@@H]1OC(=O)[C@H]2C[C@H]3CCCC[C@@H]3[C@@H](CCCN3CCN(C4CCCCC4)CC3)[C@@H]12

[1.71, 2.44, 2.72]

Quick one: log10 of Ki for "C[C@@H]1OC(=O)[C@H]2C[C@H]3CCCC[C@@H]3[C@@H](CC[C@H]3CCC[C@H](C)N3C)[C@@H]12" ?
1.51
